- Test system: Staphylococcus epidermidis
- test_description: Antibacterial activity against methicillin-sensitive Staphylococcus epidermidis 10-4 after 18 to 24 hrs by agar dilution method
- Format: functional
Catalogue of MIC readings, one per entry.
measured_parameter: MIC (µg/mL)

>>> print(df.to_string())
                                    compound  measured
 0  CO/N=C1\CC(N)CN(c2c(F)cc3c(=O)c(C(=O)O)cn(C4CC4)c3c2OC)C1 (stereo not drawn)         2
 1  CNC1C/C(=N\OC)CN(c2c(F)cc3c(=O)c(C(=O)O)cn(C4CC4)c3c2OC)C1 (stereo not drawn)         1
 2  CCO/N=C1\CC(N)CN(c2c(F)cc3c(=O)c(C(=O)O)cn4c3c2OC[C@@H]4C)C1 (stereo partly drawn)       0.5
 3  O=C(O)c1cn(C2CC2)c2cc(N3CCNCC3)c(F)cc2c1=O         1
 4  CO/N=C1\CC(N)CN(c2c(F)cc3c(=O)c(C(=O)O)cn(C4CC4)c3c2OC(F)F)C1 (stereo not drawn)         2
 5  CCO/N=C1\CC(NC)CN(c2nc3c(cc2F)c(=O)c(C(=O)O)cn3C2CC2)C1 (stereo not drawn)         8
 6  CO/N=C1\CN(c2nc3c(cc2F)c(=O)c(C(=O)O)cn3C2CC2)CC1CN (stereo not drawn)      0.25
 7  CNC1C/C(=N\OC)CN(c2c(F)cc3c(=O)c(C(=O)O)cn(C4CC4)c3c2F)C1 (stereo not drawn)         2
 8  C[C@H]1COc2c(N3CCN(C)CC3)c(F)cc3c(=O)c(C(=O)O)cn1c23.C[C@H]1COc2c(N3CCN(C)CC3)c(F)cc3c(=O)c(C(=O)O)cn1c23.O         2
 9  CCO/N=C1\CC(N)CN(c2c(F)cc3c(=O)c(C(=O)O)cn(C4CC4)c3c2F)C1 (stereo not drawn)       0.5
10  CO/N=C1\CC(N)CN(c2c(F)cc3c(=O)c(C(=O)O)cn4c3c2OC[C@@H]4C)C1 (stereo partly drawn)         4
11  CCO/N=C1\CC(N)CN(c2nc3c(cc2F)c(=O)c(C(=O)O)cn3C2CC2)C1 (stereo not drawn)         4
12  CO/N=C1\CC(N)CN(c2c(F)cc3c(=O)c(C(=O)O)cn(C4CC4)c3c2F)C1 (stereo not drawn)         4
13  CO/N=C1\CC(N)CN(c2cc3c(cc2F)c(=O)c(C(=O)O)cn3C2CC2)C1 (stereo not drawn)         8
14  CO/N=C1\CC(N)CN(c2nc3c(cc2F)c(=O)c(C(=O)O)cn3C2CC2)C1 (stereo not drawn)         2
15  CNC1C/C(=N\OC)CN(c2nc3c(cc2F)c(=O)c(C(=O)O)cn3C2CC2)C1 (stereo not drawn)         2
16  CCn1cc(C(=O)O)c(=O)c2cc(F)c(N3C/C(=N/OC)CC(N)C3)c(F)c21 (stereo not drawn)        16
17  CCO/N=C1\CC(N)CN(c2c(F)cc3c(=O)c(C(=O)O)cn(C4CC4)c3c2OC(F)F)C1 (stereo not drawn)      0.25

----------
- test_description: Cytotoxicity against african green monkey Vero cells after 24 hrs
- Format: cell-based
- condition_set: chlorocebus sabaeus
Catalogue of CC50 at 24 h readings, one per entry.
measured_parameter: CC50 at 24 h (µM)

                                   compound  unit_info  measured
0  CO/N=C1\CC(N)CN(c2cc3c(cc2F)c(=O)c(C(=O)O)cn3C2CC2)C1 (centres undefined)         µM       593
1  CNC1C/C(=N\OC)CN(c2nc3c(cc2F)c(=O)c(C(=O)O)cn3C2CC2)C1 (centres undefined)         µM       645
2  CCO/N=C1\CC(N)CN(c2c(F)cc3c(=O)c(C(=O)O)cn(C4CC4)c3c2F)C1 (centres undefined)         µM      1320
3  CO/N=C1\CC(N)CN(c2c(F)cc3c(=O)c(C(=O)O)cn(C4CC4)c3c2F)C1 (centres undefined)         µM       739

----------
- test_description: Cytotoxicity against african green monkey Vero cells after 24 hrs
- Format: cell-based
- condition_set: chlorocebus sabaeus
Labelling: CC50 at 24 h reported below 1000 µM becomes yes; at or above becomes no.

>>> df
                                   compound  label_value
0  CCO/N=C1\CC(N)CN(c2c(F)cc3c(=O)c(C(=O)O)cn4c3c2OC[C@@H]4C)C1 (some centres undefined)           no
1  CO/N=C1\CC(N)CN(c2c(F)cc3c(=O)c(C(=O)O)cn(C4CC4)c3c2OC(F)F)C1 (centres undefined)          yes
2  CCO/N=C1\CC(N)CN(c2c(F)cc3c(=O)c(C(=O)O)cn(C4CC4)c3c2OC(F)F)C1 (centres undefined)           no
3  CNC1C/C(=N\OC)CN(c2c(F)cc3c(=O)c(C(=O)O)cn(C4CC4)c3c2OC)C1 (centres undefined)           no
4  CCn1cc(C(=O)O)c(=O)c2cc(F)c(N3C/C(=N/OC)CC(N)C3)c(F)c21 (centres undefined)          yes
5  CO/N=C1\CC(N)CN(c2nc3c(cc2F)c(=O)c(C(=O)O)cn3C2CC2)C1 (centres undefined)          yes
6  CCO/N=C1\CC(N)CN(c2c(F)cc3c(=O)c(C(=O)O)cn(C4CC4)c3c2OC)C1 (centres undefined)          yes

----------
- System: Staphylococcus aureus
- test_description: Antibacterial activity against methicillin-sensitive Staphylococcus aureus 10-04 after 18 to 24 hrs by agar dilution method
- Type: functional
measured_parameter: MIC (µg/mL)

In [3]: df
Out[3]:
                                   molecule        target_of_assay  measured
0  CO/N=C1\CC(N)CN(c2cc3c(cc2F)c(=O)c(C(=O)O)cn3C2CC2)C1 (stereo not drawn)  Staphylococcus aureus         4
1  CCO/N=C1\CC(NC)CN(c2nc3c(cc2F)c(=O)c(C(=O)O)cn3C2CC2)C1 (stereo not drawn)  Staphylococcus aureus         4
2  CO/N=C1\CC(N)CN(c2c(F)cc3c(=O)c(C(=O)O)cn(C4CC4)c3c2OC(F)F)C1 (stereo not drawn)  Staphylococcus aureus         8
3  CNC1C/C(=N\OC)CN(c2c(F)cc3c(=O)c(C(=O)O)cn(C4CC4)c3c2OC)C1 (stereo not drawn)  Staphylococcus aureus       0.5
4  CCO/N=C1\CC(N)CN(c2c(F)cc3c(=O)c(C(=O)O)cn4c3c2OC[C@@H]4C)C1 (stereo partly drawn)  Staphylococcus aureus       0.5
5  CO/N=C1\CC(N)CN(c2nc3c(cc2F)c(=O)c(C(=O)O)cn3C2CC2)C1 (stereo not drawn)  Staphylococcus aureus         8
6  CCO/N=C1\CC(N)CN(c2c(F)cc3c(=O)c(C(=O)O)cn(C4CC4)c3c2F)C1 (stereo not drawn)  Staphylococcus aureus       0.5
7  C[C@H]1COc2c(N3CCN(C)CC3)c(F)cc3c(=O)c(C(=O)O)cn1c23.C[C@H]1COc2c(N3CCN(C)CC3)c(F)cc3c(=O)c(C(=O)O)cn1c23.O  Staphylococcus aureus         8

----------
Catalogue of MIC readings, one per entry.
- System: Staphylococcus aureus
- test_description: Antibacterial activity against methicillin-sensitive Staphylococcus aureus 10-04 after 18 to 24 hrs by agar dilution method
- Assay type: functional
measured_parameter: MIC

                                   compound    measured
0  CCO/N=C1\CC(NC)CN(c2c(F)cc3c(=O)c(C(=O)O)cn(C4CC4)c3c2OC)C1 (centres undefined)    0.5 mg/L
1  CO/N=C1\CC(N)CN(c2c(F)cc3c(=O)c(C(=O)O)cn4c3c2OC[C@@H]4C)C1 (some centres undefined)      2 mg/L
2  CO/N=C1\CC(N)CN(c2c(F)cc3c(=O)c(C(=O)O)cn(C4CC4)c3c2F)C1 (centres undefined)    0.5 mg/L
3  CCO/N=C1\CC(N)CN(c2c(F)cc3c(=O)c(C(=O)O)cn(C4CC4)c3c2OC)C1 (centres undefined)  0.125 mg/L
4  CO/N=C1\CC(N)CN(c2c(F)cc3c(=O)c(C(=O)O)cn(C4CC4)c3c2OC)C1 (centres undefined)    0.5 mg/L
5  CNC1C/C(=N\OC)CN(c2nc3c(cc2F)c(=O)c(C(=O)O)cn3C2CC2)C1 (centres undefined)      4 mg/L
6  CCO/N=C1\CC(N)CN(c2c(F)cc3c(=O)c(C(=O)O)cn(C4CC4)c3c2OC(F)F)C1 (centres undefined)   0.25 mg/L
7  CNC1C/C(=N\OC)CN(c2c(F)cc3c(=O)c(C(=O)O)cn(C4CC4)c3c2F)C1 (centres undefined)      2 mg/L
8  CCO/N=C1\CC(N)CN(c2nc3c(cc2F)c(=O)c(C(=O)O)cn3C2CC2)C1 (centres undefined)      2 mg/L

Cited source for all entries: ChEMBL document CHEMBL1667809
